Target: human TGFßRII (antigen of the Octet experiments) (human, UniProt P37173 23-166)
Sequence (P37173 23-166): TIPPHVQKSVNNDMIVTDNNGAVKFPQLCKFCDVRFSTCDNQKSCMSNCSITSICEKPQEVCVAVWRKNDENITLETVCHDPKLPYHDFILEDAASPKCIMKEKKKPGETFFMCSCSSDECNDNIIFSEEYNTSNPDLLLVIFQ
Test: BLI (Octet)
REPORTED ENDPOINT: Kd (nM)

binder="H1 L1.15 XENP34578 (antibody, V domains shown) VH: QLQVQESGPGLVKPSETLSLTCTVSGGSISNSYFSWGWIRQPPGKGLEWIGSFYYGEKTYYNPSLKSRATISIDTSKSQFSLKLSSVTAADTAVYYCPRGPTMIRGVIDSWGQGTLVTVSS VL: EIVLTQSPATLSLSPGERATLSCRASQSVRSYLNWYQQKPGQAPRLLIYDASNRATGIPARFSGSGSGTDFTLTISSLEPEDFAVYYCQQRSNWPPTFGQGTKVEIK" value_unit=nM quantitative_readout=2.48
binder="H1 L1.21 XENP34584 (antibody, V domains shown) VH: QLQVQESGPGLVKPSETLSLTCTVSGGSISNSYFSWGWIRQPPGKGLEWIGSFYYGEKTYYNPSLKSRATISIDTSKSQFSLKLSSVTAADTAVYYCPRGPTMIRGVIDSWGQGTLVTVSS VL: EIVLTQSPATLSLSPGERATLSCRASQSVRSYLAWYQQKPGQAPRLLIYGASNRATGIPARFSGSGSGTDFTLTISSLEPEDFAVYYCQQRSNWPPTFGQGTKVEIK" value_unit=nM quantitative_readout=0.429
binder="H1 L1.27 XENP34590 (antibody, V domains shown) VH: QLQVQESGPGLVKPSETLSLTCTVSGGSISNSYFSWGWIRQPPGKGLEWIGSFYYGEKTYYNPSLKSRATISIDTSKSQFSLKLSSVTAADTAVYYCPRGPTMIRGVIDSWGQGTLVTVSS VL: EIVLTQSPATLSLSPGERATLSCRASQSVRSYLAWYQQKPGQAPRLLIYDASNRATSIPARFSGSGSGTDFTLTISSLEPEDFAVYYCQQRSNWPPTFGQGTKVEIK" value_unit=nM quantitative_readout=0.92
